Molecular target: T1, human CTLA4 expressed on Jurkat T cells (human, UniProt P16410 36-223)
T1 construct: whole, on cells; also called hCTLA4; cell surface-expressed hCTLA4
T1 sequence (P16410 36-223): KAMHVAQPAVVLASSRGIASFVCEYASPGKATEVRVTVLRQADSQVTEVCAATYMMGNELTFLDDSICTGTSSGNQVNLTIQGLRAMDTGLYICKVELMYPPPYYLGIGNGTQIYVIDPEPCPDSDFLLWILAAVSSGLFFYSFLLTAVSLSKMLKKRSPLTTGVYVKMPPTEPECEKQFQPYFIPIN
Experiment: flow cytometry on Jurkat T cells expressing hCTLA4

binder	EC50 [nM]
anti-hCTLA4 antibody 2F1 (antibody, human IgG1, V domains shown) VH: QVQLVESGGGVVEPGRSLRLSCAASGFTFSSYGMHWVRQAPGKGLEWVAVIWYHRSEKDYADSAKGRFTISRDNSKNTLYLQMNSLRAEDTAVYYCARAGLLGYFDYWGQGTLVTVSS VL: EIVLTQSPGTLSLSPGERATLSCRASQSINSYLAWYQQKPGQAPRPLIYGVSSRATGIPDRFSGSGSGTDFTLTISRLEPEDFAVYYCQQYGMYPFTFGPGTKVDIK	0.276
anti-hCTLA4 antibody 12G4 (antibody, human IgG1, V domains shown) VH: QVQLVESGGGVVEPGRSLRLSCAASGFTFSSYGMHWVRQAPGKGLEWVAVIWYNTSKKDYADSAKGRFTISRDNSKNTLYLQMNSLRAEDTAVYYCARGGLLGYFDYWGQGTLVTVSS VL: EIVLTQSPGTLSLSPGERATLSCRASQSITSYLAWYQQKPGQAPRPLIYGVSSRATGIPDRFSGSGSGTDFTLTISRLEPEDFAVYYCQQYGRYPFTFGPGTKVDIK	0.15
anti-hCTLA4 antibody 8B4 (antibody, human IgG1, V domains shown) VH: QVQLVESGGGVVEPGRSLRLSCAASGFTFSSYGMHWVRQAPGKGLEWVAVIWYQPSEKDYADSAKGRFTISRDNSKNTLYLQMNSLRAEDTAVYYCARAGFLGYFDYWGQGTLVTVSS VL: EIVLTQSPGTLSLSPGERATLSCRASQSVNSYLAWYQQKPGQAPRPLIYGVSSRATGIPDRFSGSGSGTDFTLTISRLEPEDFAVYYCQQYGMYPFTFGPGTKVDIK	0.384

Values were extracted from patent US20190276542A1.
